Taken from BindingDB's records for doi:10.1016/j.bmc.2019.115122.

Experiment: Agonist activity at PPARgamma in human MKN45 cells assessed as induction of cell aggregation incubated for 5 days by Hoechst 33342 staining based IN cell analyzer method
METRIC_NAME: pEC50
Numbers only, as −log10 of the molar value.

Examples from the recorded data:
C/C(=C1/c2ccc(Cc3c(C4CC4)nc4cc(F)ccn34)cc2COc2cc(F)ccc21)c1noc(=O)[nH]1; 8.77
C/C(=C1/c2ccc(Cc3c(C4CC4)nc4ccccn34)cc2COc2cc(F)ccc21)c1noc(=O)[nH]1; 8.28
C/C(=C1/c2ccc(Cc3c(C4CC4)nc4c(Cl)cccn34)cc2COc2cc(F)ccc21)c1noc(=O)[nH]1; 8.60

List reported pEC50 for each of these compounds:
1. CCCc1nc2ccccc2n1Cc1ccc2c(c1)COc1c(F)cccc1/C2=C(\C)c1noc(=O)[nH]1
2. CCCc1nc2c(C)cccc2n1Cc1ccc2c(c1)COc1ccccc1/C2=C(\C)c1noc(=O)[nH]1

8.42
8.48
